- subject.of.test: D(2) dopamine receptor (Rattus norvegicus)
- Sequence (P61169 whole entry): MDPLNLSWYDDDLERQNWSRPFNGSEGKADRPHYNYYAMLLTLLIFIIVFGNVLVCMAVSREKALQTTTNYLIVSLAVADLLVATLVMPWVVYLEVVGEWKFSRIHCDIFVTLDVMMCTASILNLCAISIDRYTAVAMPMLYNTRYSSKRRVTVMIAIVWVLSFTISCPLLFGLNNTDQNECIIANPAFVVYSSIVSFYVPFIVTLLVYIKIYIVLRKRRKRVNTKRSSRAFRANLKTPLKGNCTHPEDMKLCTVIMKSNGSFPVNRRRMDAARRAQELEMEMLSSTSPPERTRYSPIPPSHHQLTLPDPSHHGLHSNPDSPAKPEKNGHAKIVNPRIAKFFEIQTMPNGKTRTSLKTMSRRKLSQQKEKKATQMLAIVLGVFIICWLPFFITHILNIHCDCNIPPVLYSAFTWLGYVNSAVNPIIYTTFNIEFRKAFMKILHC
- assay.text: Tested for the inhibition of [3H]spiperone binding to dopamine D2 receptor
property.label: log10 of IC50 (log10 of the value in nM)

> print(dat)
                                smiles.entry                           subject.of.test  property.label  endpoint.value
 1  O=C1NCCN1CCN1CCC(c2cn(-c3ccc(F)cc3)c3ccccc23)CC1  D(2) dopamine receptor (Rattus norvegicus)   log10 of IC50            1.26
 2  Cc1ccc2c(c1)c(C1CCN(CCN3CCNC3=O)CC1)cn2-c1ccc(F)cc1  D(2) dopamine receptor (Rattus norvegicus)   log10 of IC50            0.57
 3  O=C1NCCN1CCN1CCN(c2cn(-c3ccc(F)cc3)c3ccc(Cl)cc23)CC1  D(2) dopamine receptor (Rattus norvegicus)   log10 of IC50            1.32
 4  O=C1N(CCN2CCC(c3cn(-c4ccc(F)cc4)c4ccc(Cl)cc34)CC2)CCN1c1ccccc1  D(2) dopamine receptor (Rattus norvegicus)   log10 of IC50            1.96
 5  O=C1NCCN1CCN1CCC(c2cn(-c3ccc(F)cc3)c3ccc(F)cc23)CC1  D(2) dopamine receptor (Rattus norvegicus)   log10 of IC50            0.67
 6  O=C1NCCN1CCN1CCC(c2c[nH]c3ccc(Cl)cc23)CC1  D(2) dopamine receptor (Rattus norvegicus)   log10 of IC50            2.91
 7  O=C1NCCN1CCCCN1CCC(c2cn(-c3ccc(F)cc3)c3ccc(Cl)cc23)CC1  D(2) dopamine receptor (Rattus norvegicus)   log10 of IC50            1.89
 8  O=C1NCCN1CCN1CCC(c2cn(-c3ccc(F)cc3)c3ccc(C(F)(F)F)cc23)CC1  D(2) dopamine receptor (Rattus norvegicus)   log10 of IC50            0.28
 9  CN1CC=C(c2cn(-c3ccc(F)cc3)c3ccc([N+](=O)[O-])cc23)CC1  D(2) dopamine receptor (Rattus norvegicus)   log10 of IC50           -0.12
10   CN1CC=C(c2cn(-c3ccc(F)cc3)c3ccccc23)CC1  D(2) dopamine receptor (Rattus norvegicus)   log10 of IC50            0.20
11  CN1CCN(c2cn(-c3ccc(F)cc3)c3ccc(Cl)cc23)CC1  D(2) dopamine receptor (Rattus norvegicus)   log10 of IC50            0.00
12  N#Cc1ccc2c(c1)c(C1=CCN(CCN3CCNC3=O)CC1)cn2-c1ccc(F)cc1  D(2) dopamine receptor (Rattus norvegicus)   log10 of IC50            0.32
13  CN1CCN(CCN2CCC(c3cn(-c4ccc(F)cc4)c4ccc(Cl)cc34)CC2)C1=O  D(2) dopamine receptor (Rattus norvegicus)   log10 of IC50            0.81
14  O=C1NCCN1CCCCCCN1CCC(c2cn(-c3ccc(F)cc3)c3ccc(Cl)cc23)CC1  D(2) dopamine receptor (Rattus norvegicus)   log10 of IC50            0.34
15  COc1ccc2c(c1)c(C1CCN(CCN3CCNC3=O)CC1)cn2-c1ccc(F)cc1  D(2) dopamine receptor (Rattus norvegicus)   log10 of IC50            1.38
16  CC(C)N1CCN(CCN2CCC(c3cn(-c4ccc(F)cc4)c4ccc(Cl)cc34)CC2)C1=O  D(2) dopamine receptor (Rattus norvegicus)   log10 of IC50            1.08
17  O=C1NCCN1CCCN1CCC(c2cn(-c3ccc(F)cc3)c3ccc(Cl)cc23)CC1  D(2) dopamine receptor (Rattus norvegicus)   log10 of IC50            0.53
18  O=C1NCCN1CCN1CCC(c2cn(-c3ccc(F)cc3)c3ccc(Br)cc23)CC1  D(2) dopamine receptor (Rattus norvegicus)   log10 of IC50            0.58
19  CS(=O)(=O)c1ccc2c(c1)c(C1CCN(CCN3CCNC3=O)CC1)cn2-c1ccc(F)cc1  D(2) dopamine receptor (Rattus norvegicus)   log10 of IC50            0.76
20  OCCN1CCC(c2cn(-c3ccc(F)cc3)c3ccc(Cl)cc23)CC1  D(2) dopamine receptor (Rattus norvegicus)   log10 of IC50            0.65
